Reported values of z-score for individual entries
molecular target: Insulin-degrading enzyme (Homo sapiens); assay: inhibitors of IDE decapeptide proteolysis, dose response, counter-screen for IDE exo-site inhibitor project, biochemical, kinetic mode (AID 1259348); settings: purified human IDE, fluorogenic decapeptide proteolysis, measured here: primary FP probe displacement screen, stronger effect = lower value;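 further: purified IDE bound to fluorescein-labelled 6b probe FL-6b at the exo-site; test concentration not given here; probe displacement lowers polarization so hits show a drop in FP signal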

| molecule | z-score |
| --- | --- |
| CCCNC(=O)N1CC(=O)N2[C@@H](CO)[C@@H](c3ccc(C#Cc4cccc(OC)c4)cc3)[C@@H]2C1 | -1.33 |
| O=C(c1ccccn1)N1CC(=O)N2[C@@H](CO)[C@@H](c3ccc(C#Cc4ccccc4)cc3)[C@@H]2C1 | -19.9 |
| Cc1ccccc1-c1ccc([C@@H]2[C@H](CO)N3C(=O)CN(C(=O)NC4CCCC4)C[C@@H]23)cc1 | -8.13 |
| COc1ccccc1-c1ccc([C@H]2[C@@H](CO)N3CCCCN(C(=O)c4cccnc4)C[C@H]23)cc1 | -12.8 |
| Cc1ccccc1-c1ccc(C2[C@@H]3CN(C(=O)Cc4ccncc4)C[C@H]2N3)cc1 (some centres not stated) | -9.03 |
| Cc1ccccc1-c1ccc([C@H]2[C@@H](CO)N3CCCCN(C(=O)Nc4cccc(F)c4)C[C@@H]23)cc1 | -4.36 |
| Cc1cccc(-c2ccc([C@H]3[C@@H](CO)N4CCCCN(Cc5cccnc5)C[C@H]34)cc2)c1 | -6.79 |
| Cc1cccc(-c2ccc([C@@H]3[C@@H](CO)N4CCCCN(S(=O)(=O)c5ccccc5C)C[C@@H]34)cc2)c1 | -20.3 |
| Cc1ccccc1-c1ccc([C@H]2[C@H](CO)N3C(=O)CN(C(=O)Cc4ccccn4)C[C@@H]23)cc1 | -13.9 |
| Cc1ccccc1-c1ccc([C@H]2[C@@H](CO)N3C(=O)CN(C(=O)Cc4ccccn4)C[C@@H]23)cc1 | -17.3 |
| CO[C@@H]1CN(C)C(=O)c2cc(NC(=O)c3ccc(Oc4ccccc4)cc3)ccc2OC[C@@H](C)NC[C@H]1C | -13.5 |
| COc1ccccc1-c1ccc([C@H]2[C@@H](CO)N3CCCCN(C(=O)NC4CCCC4)C[C@H]23)cc1 | -19.1 |
| Cc1ccccc1-c1ccc(C2[C@@H]3CN(S(=O)(=O)c4cn(C)cn4)C[C@H]2N3)cc1 (some centres not stated) | -16.6 |
| Cc1ccccc1-c1ccc([C@H]2[C@H](CO)N3C(=O)CN(C(=O)c4ccncc4)C[C@@H]23)cc1 | -7.39 |
| Cc1cccc(-c2ccc([C@@H]3[C@@H](CO)N4C(=O)CN(C(=O)NC5CCCCC5)C[C@@H]34)cc2)c1 | -16.6 |
| Cc1cccc(-c2ccc([C@@H]3[C@@H](CO)N4CCCCN(C(=O)c5cccnc5)C[C@@H]34)cc2)c1 | -3.25 |
| CC(=O)N1CCCCN2[C@H](CO)[C@@H](c3ccc(-c4cccc(C)c4)cc3)[C@@H]2C1 | -3.48 |
